compounds and their reported pIC50
Biological target: Casein kinase I isoform delta (Rattus norvegicus, UniProt Q06486)
Sequence (Q06486 whole entry, canonical isoform): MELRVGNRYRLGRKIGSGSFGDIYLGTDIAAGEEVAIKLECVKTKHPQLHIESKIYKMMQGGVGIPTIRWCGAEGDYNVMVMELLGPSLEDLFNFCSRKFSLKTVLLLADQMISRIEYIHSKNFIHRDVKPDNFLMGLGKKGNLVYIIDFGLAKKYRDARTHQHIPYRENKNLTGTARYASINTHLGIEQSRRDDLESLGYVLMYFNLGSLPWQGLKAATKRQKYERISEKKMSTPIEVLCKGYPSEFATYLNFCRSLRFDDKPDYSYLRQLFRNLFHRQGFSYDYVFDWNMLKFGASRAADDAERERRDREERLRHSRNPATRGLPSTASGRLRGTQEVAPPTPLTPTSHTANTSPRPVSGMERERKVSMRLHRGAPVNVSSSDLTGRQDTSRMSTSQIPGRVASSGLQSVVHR
Assay: Inhibition of full-length rat GST-tagged CK1delta using alpha-casein as substrate after 30 mins in presence of [gamma-32P]-ATP by Cherenkov counting method
Please note pIC50 is a logarithmic value: minus log10 of concentration in mol/L. Answer with that number alone.

Worked examples follow.
>>> print(df.to_string())
                                smiles_code  parameter  test_value
0  Cc1ccc2nc(NC(=O)CSc3nc4c(c(=O)n3Cc3ccccc3)SCC4)sc2c1      pIC50        5.78
1  O=C(CSc1nc2c(c(=O)n1Cc1ccc(OC(F)(F)F)cc1)SCC2)Nc1nc2ccc(C(F)(F)F)cc2s1      pIC50        6.15
2  Cc1ccc2nc(NC(=O)CSc3nc4c(c(=O)n3-c3ccc(F)cc3)SCC4)sc2c1      pIC50        5.72

Alright, here's another compound for you.
Which measured pIC50 value corresponds to "O=C(CSc1nc2c(c(=O)n1Cc1ccccc1)SCC2)Nc1nc2ccc(C(F)(F)F)cc2s1" ?
5.97
